Overview of reported MIC across a group of molecules:
# Tested on: A. flavus MMX 5948
# experimentDescription: MIC/MEC assay (CLSI microdilution)
# Assay type: cell-based
# protocolConditions: Aspergillus flavus, MMX5948, 48 h, RPMI plus 0.002% Tween-80, read-out: MIC
Numbered stars: 1 amine (or outer) side, 2 acyl side, 3 side chain; on linkers, the order of the positions; unused ones are H or OH. Square brackets hold non-standard residues; d marks the D form. Peptide text beside a SMILES is read from it. X2 = CN1CCN(c2ccc(-c3cccc(C[C@@H](C(=O)[*:2])N(C)[*:1])c3)cc2)CC1; X18 = CN([C@@H](Cc1cccc(-c2ccc3ccncc3c2)c1)C(=O)[*:2])[*:1]; X33 = CN([C@@H](Cc1cccc(-c2ccc3ccccc3c2)c1)C(=O)[*:2])[*:1]; Hmp(2R,3S) = CC[C@H](C)[C@@H](O)C(=O)O; NMeVal(β-OH) = CN[C@H](C(=O)O)C(C)(C)O; NMeV = CN[C@H](C(=O)O)C(C)C
Form entry: value (µg/mL) — number only.

Example entries and their recorded answers appear below.
{"columns": ["molecule", "resultUnits", "MIC"],
 "data": [
  ["CC[C@H](C)[C@@H]1NC(=O)[C@@H]2CCCN2C(=O)[C@H](Cc2cccc(-c3ccc4ccncc4c3)c2)N(C)C(=O)[C@H](Cc2ccccc2)NC(=O)[C@H](C(C)C)N(C)C(=O)[C@@H]([C@@H](C)CC)OC(=O)[C@H](C(C)(C)O)N(C)C(=O)[C@H](CC(C)C)NC(=O)[C@H](C(C)C)N(C)C1=O [Compound 17] (cyclo(F[X18]PI[NMeV]L[NMeVal(β-OH)][Hmp(2R,3S)][NMeV]))", "µg/mL", 0.5],
  ["CC[C@H](C)[C@@H]1NC(=O)[C@@H]2CCCN2C(=O)[C@H](Cc2cccc(-c3ccc4ccccc4c3)c2)N(C)C(=O)[C@H](Cc2ccccc2)NC(=O)[C@H](C(C)C)N(C)C(=O)[C@@H]([C@@H](C)CC)OC(=O)[C@H](C(C)(C)O)N(C)C(=O)[C@H](CC(C)C)NC(=O)[C@H](C(C)C)N(C)C1=O [Compound 5] (cyclo(F[X33]PI[NMeV]L[NMeVal(β-OH)][Hmp(2R,3S)][NMeV]))", "µg/mL", 1]
]}

# input for lookup
Q: Fill in reported MIC for this entry: CC[C@H](C)[C@@H]1NC(=O)[C@@H]2CCCN2C(=O)[C@H](Cc2cccc(-c3ccc(N4CCN(C)CC4)cc3)c2)N(C)C(=O)[C@H](Cc2ccccc2)NC(=O)[C@H](C(C)C)N(C)C(=O)[C@@H]([C@@H](C)CC)OC(=O)[C@H](C(C)(C)O)N(C)C(=O)[C@H](CC(C)C)NC(=O)[C@H](C(C)C)N(C)C1=O [Compound 19] (cyclo(F[X2]PI[NMeV]L[NMeVal(β-OH)][Hmp(2R,3S)][NMeV]))
Result: 0.015

----------
# Tested on: A. niger MMX 0624 ATCC 16888
# experimentDescription: MIC/MEC assay (CLSI microdilution)
# Assay type: cell-based
# protocolConditions: Aspergillus niger, ATCC16888, 48 h, RPMI plus 0.002% Tween-80, read-out: MIC
# Experimental: Aureobasidin and test compounds (i.e., AbA derivatives of the present invention) were received from Kalexsyn, Inc. (Kalamazoo, Mich.) as powder and were stored at 4° C. until the day of assay. […] amphotericin was obtained from Sigma Aldrich and stored under like conditions. […] Ethanol (95%) was used as a solvent and diluent for all AbA compounds. Amphotericin B was tested from 0.06-64 μg/mL. […]
Numbered stars: 1 amine (or outer) side, 2 acyl side, 3 side chain; on linkers, the order of the positions; unused ones are H or OH. Square brackets hold non-standard residues; d marks the D form. Peptide text beside a SMILES is read from it. X1 = CC(C)N1CCN(c2ccc(-c3cccc(C[C@@H](C(=O)[*:2])N(C)[*:1])c3)cc2)CC1; X7 = CC(C)N1CCN(c2ccc(-c3cccc(C[C@H](N[*:1])C(=O)[*:2])c3)cc2)CC1; X27 = CN([C@@H](Cc1cccc(-c2cccc3ccccc23)c1)C(=O)[*:2])[*:1]; Hmp(2R,3S) = CC[C@H](C)[C@@H](O)C(=O)O; NMeVal(β-OH) = CN[C@H](C(=O)O)C(C)(C)O; NMeV = CN[C@H](C(=O)O)C(C)C
quantityName: MIC (µg/mL)
Form entry: value (µg/mL) — number only.

{"columns": ["compound", "MIC / µg/mL"],
 "data": [
  ["CC[C@H](C)[C@@H]1NC(=O)[C@@H]2CCCN2C(=O)[C@H](Cc2cccc(-c3cccc4ccccc34)c2)N(C)C(=O)[C@H](Cc2ccccc2)NC(=O)[C@H](C(C)C)N(C)C(=O)[C@@H]([C@@H](C)CC)OC(=O)[C@H](C(C)(C)O)N(C)C(=O)[C@H](CC(C)C)NC(=O)[C@H](C(C)C)N(C)C1=O [Compound 9] (cyclo(F[X27]PI[NMeV]L[NMeVal(β-OH)][Hmp(2R,3S)][NMeV]))", 0.25]
]}

Q: Fill in reported MIC for this entry: CC[C@H](C)[C@@H]1NC(=O)[C@@H]2CCCN2C(=O)[C@H](Cc2cccc(-c3ccc(N4CCN(C(C)C)CC4)cc3)c2)N(C)C(=O)[C@H](Cc2cccc(-c3ccc(N4CCN(C(C)C)CC4)cc3)c2)NC(=O)[C@H](C(C)C)N(C)C(=O)[C@@H]([C@@H](C)CC)OC(=O)[C@H](C(C)(C)O)N(C)C(=O)[C@H](CC(C)C)NC(=O)[C@H](C(C)C)N(C)C1=O [Compound 31] (cyclo(I[NMeV]L[NMeVal(β-OH)][Hmp(2R,3S)][NMeV][X7][X1]P))
Result: 1
